Entries and their %Inh values follow.
- System: CDK7
- TEST_SETTINGS: concentration: 1 μM, replicates: in singlicate; n = 1;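 also: KINOMEscan kinase panel screen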
Quick note: number first, unit second.

[[record]]
compound = "Nc1nc(-c2ccccc2F)c(-c2ccnc3ccccc23)s1 [GW560459]"
measured_value = "0%"

[[record]]
compound = "Cc1nnc(-c2ccc(C)c(-c3ccc(C(=O)O)cc3)c2)o1 [GW608005]"
measured_value = "0%"

[[record]]
compound = "Cl.NS(=O)(=O)c1cccc(Nc2cc(-c3ccc(F)cc3)n[nH]2)c1 [GW824645]"
measured_value = "1%"


Sure, the documented %Inh for COc1cc(Nc2nccc(N3CCC(NC(=O)C4COc5ccccc5O4)C3)n2)cc(OC)c1OC (stereo not shown) [GSK1379761] is 57%

###

Entries and their %Inh values follow.
- Test system: YES
- Construct: gene YES1
- TEST_SETTINGS: concentration: 1 μM, replicates: in singlicate; n = 1
Quick note: number first, unit second.

[[record]]
compound = "COc1cc2ncn(-c3cc(OCc4ccc(S(C)(=O)=O)cc4)c(C(N)=O)s3)c2cc1OC [GW869979]"
measured_value = "28%"

[[record]]
compound = "O=c1cc(N2CCOCC2)nc2n(Cc3ccc(F)c(Cl)c3)ccn12 [GSK2297099]"
measured_value = "11%"


Sure, the documented %Inh for Nc1nc(-c2ccccc2F)c(-c2ccnc3ccccc23)s1 [GW560459] is 0%

Sure, the documented %Inh for COc1cc(Nc2ccnc3ccc(C(F)(F)F)cc23)cc(OC)c1OC [GW577382] is 13%

###

- Test system: BRK
- Construct: gene PTK6
- TEST_SETTINGS: concentration: 1 μM, replicates: in singlicate; n = 1
Entries and their %Inh values follow.
The reply should be a number in %, with the unit left off.

Example cases with answers are listed next.
[[record]]
compound = "COc1ccc(-c2cc3c(C)nc(N)nc3n([C@H]3CC[C@H](OCCO)CC3)c2=O)cn1"
reported_endpoint = "%Inh"
unit_name = "%"
measured_value = 0

[[record]]
compound = "COc1cc2ncn(-c3cc(OCc4ccncc4)c(C(N)=O)s3)c2cc1OC"
reported_endpoint = "%Inh"
unit_name = "%"
measured_value = 0

[[record]]
compound = "CCc1ccc(-c2ccc3c(c2)-c2nn(C)cc2S(=O)(=O)N3C)cc1"
reported_endpoint = "%Inh"
unit_name = "%"
measured_value = 0

[[record]]
compound = "CC(C)(C)c1ccc(C(=O)Nc2cn3cc(-c4ccccc4)ccc3n2)cc1"
reported_endpoint = "%Inh"
unit_name = "%"
measured_value = 0

[[record]]
compound = "Cl.c1ccc(Cn2cnc3cc(Nc4ncnc5ccccc45)ccc32)cc1"
reported_endpoint = "%Inh"
unit_name = "%"
measured_value = 11

[[record]]
compound = "COc1cccc(-n2cnc3c(N)ncnc32)c1"
reported_endpoint = "%Inh"
unit_name = "%"
measured_value = 0

[[record]]
compound = "FC(F)(F)c1ccc(-c2ncn(CCCN3CCOCC3)c2-c2ccncc2)cc1"
reported_endpoint = "%Inh"
unit_name = "%"
measured_value = 4

[[record]]
compound = "CCC(=O)c1c(-c2ccccc2)c2cc(Cl)ccc2c(=O)n1Cc1cc(S(C)(=O)=O)n(CC(N)=O)n1"
reported_endpoint = "%Inh"
unit_name = "%"
measured_value = 0

[[record]]
compound = "COc1cc2ncn(-c3cc(OCc4ccc(S(C)(=O)=O)cc4)c(C(N)=O)s3)c2cc1OC"
reported_endpoint = "%Inh"
unit_name = "%"
measured_value = 0

[[record]]
compound = "CCC(=O)c1c(-c2ccccc2)c2cc(Cl)ccc2c(=O)n1Cc1ccc(C(=O)O)cc1"
reported_endpoint = "%Inh"
unit_name = "%"
measured_value = 0


Sure, the documented %Inh for O=C(Nc1ccc2c(c1)OCO2)NC1CCN(c2ccnc(NCc3ccc(F)cc3)n2)CC1 is 4

Sure, the documented %Inh for O=C1NC(=O)C(c2ccccc2)=C1Nc1cccc(O)c1 is 0

Sure, the documented %Inh for COc1cc(OC)cc(-c2cc3cnc(N)nc3nc2NC(=O)NC(C)(C)C)c1 is 0

Sure, the documented %Inh for COc1ccc(-n2cnc3c(N)ncnc32)cc1 is 0

Sure, the documented %Inh for Cc1nnc(-c2ccc(C)c(-c3ccc(C(=O)O)cc3)c2)o1 is 0

###

- Test system: PRKCH
- TEST_SETTINGS: concentration: 1 μM, replicates: in singlicate; n = 1
Entries and their %Inh values follow.
The reply should be a number in %, with the unit left off.

[[record]]
compound = "CCC(=O)c1c(-c2ccccc2)c2cc(Cl)ccc2c(=O)n1Cc1cc(C(=O)NC2CC2)n(C)n1"
system_tested = "PRKCH"
measured_value = 0


Sure, the documented %Inh for O=C(Nc1n[nH]c2nc(-c3ccccc3)c(Cl)cc12)C1CC1 [SB-734909] is 0

Sure, the documented %Inh for Cc1nn2c(=O)cc(N3CCOCC3)nc2n1Cc1cccc(Cl)c1Cl [GSK2342769] is 21

Sure, the documented %Inh for Nc1nccc2scc(-c3ccc4c(c3)CCN4C(=O)Cc3ccccc3)c12 [GSK2576924] is 31

Sure, the documented %Inh for Nc1ncnc2c1ncn2-c1ccc(Cl)cc1 [AH2635] is 0

Sure, the documented %Inh for O=C(NCCNc1ccnc(Nc2ccc(F)cc2)n1)Nc1ccc2c(c1)OCO2 [GSK1379882] is 16

Sure, the documented %Inh for COc1ccc(-c2cc3c(C)nc(N)nc3n([C@H]3CC[C@H](OCCO)CC3)c2=O)cn1 is 0

###

Entries and their %Inh values follow.
- System: FLT3-autoinhibited
- TEST_SETTINGS: concentration: 1 μM, replicates: in singlicate; n = 1
Quick note: number first, unit second.

Example cases with answers are listed next.
[[record]]
compound = "O=C(Nc1n[nH]c2nc(-c3ccccc3)c(Cl)cc12)C1CC1"
measured_value = "16%"

[[record]]
compound = "O=C(Nc1n[nH]c2cc(-c3ccccc3F)ccc12)C1CC1"
measured_value = "0%"

[[record]]
compound = "COC(=O)c1c(-c2ccccc2)c2cc(Br)ccc2c(=O)n1Cc1ccc(NC(=O)CCC(=O)O)cc1"
measured_value = "0%"

[[record]]
compound = "Cc1nn2c(=O)cc(N3CCOCC3)nc2n1Cc1cccc(Cl)c1Cl"
measured_value = "9%"

[[record]]
compound = "CCCC(=O)Nc1n[nH]c2ncc(-c3cccc4ccccc34)cc12"
measured_value = "5%"

[[record]]
compound = "COc1cccc(-n2cnc3c(N)ncnc32)c1"
measured_value = "9%"

[[record]]
compound = "Nc1nc(N)c2nc(-c3ccccc3)[nH]c2n1"
measured_value = "7%"

[[record]]
compound = "O=C(Nc1n[nH]c2nc(-c3ccccc3)c(Br)cc12)C1CC1"
measured_value = "8%"

[[record]]
compound = "COc1cc2ncn(-c3cc(OCc4ccncc4)c(C(N)=O)s3)c2cc1OC"
measured_value = "0%"

[[record]]
compound = "COc1cccc(C2=C(Nc3cccc(C(=O)O)c3)C(=O)NC2=O)c1"
measured_value = "5%"


Sure, the documented %Inh for COc1cc(Nc2nccc(N3CCC(NC(=O)C4COc5ccccc5O4)C3)n2)cc(OC)c1OC (stereo not shown) is 0%

Sure, the documented %Inh for COc1ccc(CNC(=O)NC2CCN(c3ccnc(Nc4ccc(F)cc4)n3)C2)cc1 (stereo not shown) is 0%

Sure, the documented %Inh for CCC(=O)c1c(-c2ccccc2)c2cc(Cl)ccc2c(=O)n1Cc1cc(S(C)(=O)=O)n(CC(N)=O)n1 is 0%

Sure, the documented %Inh for Fc1cccc(CSc2nnc(-c3ccc4c(c3)CCO4)o2)c1 is 23%

Sure, the documented %Inh for Nc1n[nH]c2nnc(-c3ccccc3)c(-c3ccccc3)c12 is 0%

Sure, the documented %Inh for COC(=O)c1c(-c2ccccc2)c2cc(C)ccc2c(=O)n1Cc1ccccc1 is 13%

Sure, the documented %Inh for Nc1nccc2scc(-c3ccc4c(c3)CCN4C(=O)Cc3ccccc3)c12 is 3%

Sure, the documented %Inh for O=C1NC(=O)C(c2ccccc2)=C1Nc1cccc(O)c1 is 5%

Sure, the documented %Inh for Cc1cccc(-c2cc(-c3c[nH]nc3-c3ccccn3)ccn2)c1 is 0%

Sure, the documented %Inh for CCS(=O)c1ccc(-c2coc3ccc(-c4nnc(C)o4)cc23)cc1 (stereo not shown) is 0%

Sure, the documented %Inh for COc1ccc(-c2cc3c(C)nc(N)nc3n([C@H]3CC[C@H](OCCO)CC3)c2=O)cn1 is 0%

Sure, the documented %Inh for COc1ccc(-c2coc3ccc(-c4nnc(SCc5cccc(C#N)c5)o4)cc23)cc1 is 10%

###

- System: DCAMKL2
- Construct: gene DCLK2
- TEST_SETTINGS: concentration: 1 μM, replicates: in singlicate; n = 1
Entries and their %Inh values follow.
The reply should be a number in %, with the unit left off.

[[record]]
structure_smiles_string = "CCCC(=O)Nc1n[nH]c2ncc(-c3cccc4ccccc34)cc12"
reported_endpoint = "%Inh"
measured_value = 0


Sure, the documented %Inh for COc1cc2nccc(Nc3cccc(Oc4ccccc4)c3)c2cc1OC.Cl is 0
